protocol_text: Catalepsy test (i.p., rats; number of cataleptic animals recorded every 30 minutes over 6 hours)
Type: in vivo, rat
condition_notes: rat, in vivo, ip
Method: The following compounds were tested: The foregoing compounds were compared to chlorpromazine, a well-known central depressant, especially well known as a neuroleptic agent. The test animals are considered to be cataleptic when the homolateral extremities remain in the crossed position for at least 10 seconds. The number of cataleptic animals is recorded every 30 minutes over a 6-hour period. The ED50 is the dose at which 50 percent of the animals are cataleptic.
assay_readout: TD50 at 6 h
State the value with its unit after it.

Given Cc1ccc2c(c1)CC(N1CCN(CCN3CCOC3=O)CC1)c1cc(F)ccc1S2 (stereo not shown) , state its recorded TD50 at 6 h.
75 mg/kg
